// reported Plant response rating, Nutsedge, Yellow for each item listed
Tested on: yellow nutsedge (Cyperus esculentus)
assay_remarks: Test B pre-/postemergence plant response
Type: in vivo
condition_parameters: Postemergence, 125 g ai/ha; scale 0 to 100 (0 no effect, 100 complete control)
reported_property: Plant response rating, Nutsedge, Yellow

> print(dat)
                                   compound  endpoint.value
1  COCCn1c(-c2cccs2)ncc(C(=O)C2=C(O)CCCC2=O)c1=O              80
2  O=C1CCCC(O)=C1C(=O)c1cnc(-c2cccs2)n(CC2CCCO2)c1=O (stereo not drawn)              75
3  O=C1CCCC(O)=C1C(=O)c1cnc(C2CC2)n(C2CCCCC2)c1=O              80
4  O=C1CCCC(O)=C1C(=O)c1cnc(-c2ccsc2)n(C2CCOCC2)c1=O              75
5  O=C1CCCC(O)=C1C(=O)c1cnc(-c2ccsc2)n(CC2CCCO2)c1=O (stereo not drawn)              70
6  CCc1cccc(-n2c(-c3ccccc3)ncc(C(=O)C3=C(O)CCCC3=O)c2=O)c1              25

---

// reported Crabgrass, Large plant response rating (0 to 100 scale) for each item listed
Test system: large crabgrass (Digitaria sanguinalis)
assay_remarks: Test B pre-/postemergence plant response
Assay type: in vivo
condition_parameters: 62 g ai/ha, postemergence; 0 is no effect, 100 is complete control; 13 to 15 days
reported_property: Crabgrass, Large plant response rating (0 to 100 scale)

> print(dat)
                                   compound  endpoint.value
1  O=C1CCCC(O)=C1C(=O)c1cnc(-c2ccccc2)n(C2CC2)c1=O [Compound 90]              75
2  O=C1CCCC(O)=C1C(=O)c1cnc(-c2ccsc2)n(CC2CCCO2)c1=O (stereo not shown) [Compound 98]              75
3  O=C1CCCC(O)=C1C(=O)c1cnc(-c2ccccc2)n(C2CCOCC2)c1=O [Compound 129]              80
4  COCCn1c(-c2cccs2)ncc(C(=O)C2=C(O)CCCC2=O)c1=O [Compound 108]              70
5  COCCn1c(-c2ccsc2)ncc(C(=O)C2=C(O)CCCC2=O)c1=O [Compound 97]              80
6  COCCn1c(-c2ccco2)ncc(C(=O)C2=C(O)CCCC2=O)c1=O [Compound 111]              75
7  CC(C)Cc1ncc(C(=O)C2=C(O)CCCC2=O)c(=O)n1-c1ccccc1 [Compound 68]              90

---

Test system: downy bromegrass (Bromus tectorum)
assay_remarks: Test B pre-/postemergence plant response
Assay type: in vivo
condition_parameters: Postemergence, 250 g ai/ha; scale 0 to 100 (0 no effect, 100 complete control)
// reported Plant response rating, Bromegrass, Downy for each item listed
reported_property: Plant response rating, Bromegrass, Downy

> print(dat)
                                   molecule                         test.target                         reported.property  endpoint.value
1  O=C1CCCC(O)=C1C(=O)c1cnc(-c2cccs2)n(-c2ccccc2)c1=O [Compound 66]  downy bromegrass (Bromus tectorum)  Plant response rating, Bromegrass, Downy              25
2  CCCCCCn1c(-c2ccccc2)ncc(C(=O)C2=C(O)CCCC2=O)c1=O [Compound 94]  downy bromegrass (Bromus tectorum)  Plant response rating, Bromegrass, Downy               0
3  CCCc1ncc(C(=O)C2=C(O)CCCC2=O)c(=O)n1-c1cccc(C)c1 [Compound 79]  downy bromegrass (Bromus tectorum)  Plant response rating, Bromegrass, Downy              65
4  CCOCCn1c(-c2ccccc2)ncc(C(=O)C2=C(O)CCCC2=O)c1=O [Compound 96]  downy bromegrass (Bromus tectorum)  Plant response rating, Bromegrass, Downy              10
5  CCCCc1ncc(C(=O)C2=C(O)CCCC2=O)c(=O)n1-c1ccccc1C [Compound 62]  downy bromegrass (Bromus tectorum)  Plant response rating, Bromegrass, Downy              50
6  CCCn1c(-c2ccccc2)ncc(C(=O)C2=C(O)CCCC2=O)c1=O [Compound 50]  downy bromegrass (Bromus tectorum)  Plant response rating, Bromegrass, Downy              20

---

System: barnyardgrass (Echinochloa crus-galli)
assay_remarks: Test A pre-/postemergence plant response
Type: in vivo
condition_parameters: Postemergence, 125 g ai/ha; 0 to 100 scale where 0 is no effect and 100 is complete control
reported_property: Plant response rating, Barnyardgrass

> print(dat)
                                   compound  endpoint.value
1  O=C1CCCC(O)=C1C(=O)c1cnc(-c2ccccc2)n(C2CC2)c1=O              80
2  CCCn1c(-c2ccccc2F)ncc(C(=O)C2=C(O)CCCC2=O)c1=O              80
3  O=C1CCCC(O)=C1C(=O)c1cnc(-c2ccsc2)n(CC2CCCO2)c1=O (centres unmarked)              80
4  O=C1CCCC(O)=C1C(=O)c1cnc(-c2cc(F)cc(F)c2)n(CC2CCCO2)c1=O (centres unmarked)              90
5  C#CCn1c(-c2cc(F)cc(F)c2)ncc(C(=O)C2=C(O)CCCC2=O)c1=O              40
6  CCCn1c(-c2ccc(OC)cc2)ncc(C(=O)C2=C(O)CCCC2=O)c1=O              60
7  O=C1CCCC(O)=C1C(=O)c1cnc(-c2cccc(Br)c2)n(C2CCCCC2)c1=O              90
8  CCCn1c(-c2ccc(Br)cc2)ncc(C(=O)C2=C(O)CCCC2=O)c1=O              10

---

System: ragweed (common ragweed, Ambrosia elatior)
assay_remarks: Test B pre-/postemergence plant response
Type: in vivo
condition_parameters: 31 g ai/ha, postemergence; scale 0 to 100, 0 is no effect, 100 is complete control
Could you please mark Fulfilled for values of Plant response rating, Ragweed below 80 and Not fulfilled for values at or above it?

> print(dat)
                                   compound                               test.target  class.assignment
1  CCn1c(-c2ccccc2)ncc(C(=O)C2=C(O)CCCC2=O)c1=O [Compound 49]  ragweed (common ragweed, Ambrosia elatior)         Fulfilled
2  COCCOCCn1c(-c2ccccc2)ncc(C(=O)C2=C(O)CCCC2=O)c1=O [Compound 91]  ragweed (common ragweed, Ambrosia elatior)     Not fulfilled
3  O=C1CCCC(O)=C1C(=O)c1cnc(-c2ccc(Br)cc2)n(-c2ccccc2)c1=O [Compound 70]  ragweed (common ragweed, Ambrosia elatior)         Fulfilled
4  O=C1CCCC(O)=C1C(=O)c1cnc(C2CC2)n(-c2ccccc2)c1=O [Compound 87]  ragweed (common ragweed, Ambrosia elatior)     Not fulfilled
5  O=C1CCCC(O)=C1C(=O)c1cnc(C2CCCC2)n(-c2ccccc2)c1=O [Compound 92]  ragweed (common ragweed, Ambrosia elatior)         Fulfilled
6  CCCCc1ncc(C(=O)C2=C(O)CCCC2=O)c(=O)n1-c1ccccc1C [Compound 62]  ragweed (common ragweed, Ambrosia elatior)         Fulfilled

---

Test system: corn (Zea mays)
assay_remarks: Test A pre-/postemergence plant response
Type: in vivo
condition_parameters: Preemergence, 500 g ai/ha; 0 to 100 scale, 0 = no effect, 100 = complete control
// reported Plant response rating, Corn for each item listed
reported_property: Plant response rating, Corn

> print(dat)
                                    compound      test.target  endpoint.value
 1  O=C(C1=C(O)C2CCC(C2)C1=O)c1cnc(-c2ccccc2)n(C2CCOCC2)c1=O (centres unmarked)  corn (Zea mays)               0
 2  COc1ccc(-n2c(-c3cccc(Br)c3)ncc(C(=O)C3=C(O)CCCC3=O)c2=O)cc1  corn (Zea mays)               0
 3  Cc1cccc(-c2ncc(C(=O)C3=C(O)CCCC3=O)c(=O)n2-c2ccc(F)cc2C)c1  corn (Zea mays)              40
 4  CCn1c(-c2cccc(F)c2)ncc(C(=O)C2=C(O)C3CCC(C3)C2=O)c1=O (centres unmarked)  corn (Zea mays)              10
 5  CCCCn1c(C2CC2)ncc(C(=O)C2=C(O)CCCC2=O)c1=O  corn (Zea mays)               0
 6  CCCn1c(-c2ccco2)ncc(C(=O)C2=C(O)C3CCC(C3)C2=O)c1=O (centres unmarked)  corn (Zea mays)               0
 7  O=C1CCCC(O)=C1C(=O)c1cnc(-c2ccccc2)n(C2CCCCCCC2)c1=O  corn (Zea mays)               0
 8  O=C1CCCC(O)=C1C(=O)c1cnc(-c2cc(F)cc(F)c2)n(CC2CCCCC2)c1=O  corn (Zea mays)               0
 9  O=C1CCCC(O)=C1C(=O)c1cnc(C2CC2)n(C2CCCCC2)c1=O  corn (Zea mays)              20
10  Cc1ccc(-n2c(-c3cc(F)cc(F)c3)ncc(C(=O)C3=C(O)CCCC3=O)c2=O)cc1  corn (Zea mays)               0
11  CCCn1c(-c2cc(F)cc(F)c2)ncc(C(=O)C2=C(O)CC(C)(C)CC2=O)c1=O  corn (Zea mays)              20
12  CCCn1c(-c2ccc3c(c2)OCCO3)ncc(C(=O)C2=C(O)C3CCC(C3)C2=O)c1=O (centres unmarked)  corn (Zea mays)              20
13  CCCn1c(-c2cc(Cl)cc(Cl)c2)ncc(C(=O)C2=C(O)CCCC2=O)c1=O  corn (Zea mays)              10
14  O=C(C1=C(O)C2CCC(C2)C1=O)c1cnc(-c2cc(F)cc(F)c2)n(-c2ccccc2)c1=O (centres unmarked)  corn (Zea mays)              50

These data points were gathered from patent US8952024B2.
